Target: Potassium voltage-gated channel subfamily KQT member 1 (Homo sapiens)
Assay: KCNQ1 potassium channel potentiators, confirmation, FluxOR thallium flux, CHO cells, duplicates (AID 493007)
Conditions: KCNQ1 cell line, FluxOR thallium flux fluorescence, at 10 µM, % of reference activator effect, buffer zero
Activity calls are given as the source filed them.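 How the source made its calls: active means potentiation averaged over duplicate wells exceeding buffer-only control mean by more than 3 SD; inactive means the rest.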
Labels: YES (active), NO (inactive)

> print(dat)
                                    compound  label.class
 1                      O=C1CCCCCN1Sc1ccccc1          YES
 2  COc1ccc(OCC(=O)N2CCCC2=O)c([N+](=O)[O-])c1           NO
 3      C/C(=N\NC(=O)c1cccc(F)c1)c1ccc(Br)s1           NO
 4                      NC(=S)Nc1nc2ccccc2s1          YES
 5  CN(CC(=O)NCc1ccccc1Cl)CC(=O)Nc1cccc(F)c1           NO
 6  C=CCn1c(O)c(N=NC(=S)Nc2ccccc2C)c2cc(S(=O)(=O)N3CCOCC3)ccc21          YES
 7  COc1ccccc1NC(=O)Cn1cnc2c(oc3nc4c(cc32)CCCC4)c1=O           NO
 8  Cc1ccc(S(=O)(=O)NN2C(=O)/C(=C/c3cccc(F)c3)SC2=S)cc1          YES
 9  O=C(NC(=S)Nc1nc2c(ccc3ccccc32)s1)c1cccs1          YES
10  O=C(NCc1cccs1)C1CC(c2ccccc2O)=NO1 (configuration not stated)           NO
11           O=C1c2cccc3cccc(c23)C(=O)C1(O)O           NO
12  CCCCNC(=O)CNC(=O)c1nn(-c2ccc(OC)cc2OC)c(=O)c2ccccc12           NO

###

Target: Potassium voltage-gated channel subfamily E member 1 (Homo sapiens) + Potassium voltage-gated channel subfamily KQT member 1 (Homo sapiens) (UniProt P15382+P51787)
Sequence (P51787 whole entry, looked up): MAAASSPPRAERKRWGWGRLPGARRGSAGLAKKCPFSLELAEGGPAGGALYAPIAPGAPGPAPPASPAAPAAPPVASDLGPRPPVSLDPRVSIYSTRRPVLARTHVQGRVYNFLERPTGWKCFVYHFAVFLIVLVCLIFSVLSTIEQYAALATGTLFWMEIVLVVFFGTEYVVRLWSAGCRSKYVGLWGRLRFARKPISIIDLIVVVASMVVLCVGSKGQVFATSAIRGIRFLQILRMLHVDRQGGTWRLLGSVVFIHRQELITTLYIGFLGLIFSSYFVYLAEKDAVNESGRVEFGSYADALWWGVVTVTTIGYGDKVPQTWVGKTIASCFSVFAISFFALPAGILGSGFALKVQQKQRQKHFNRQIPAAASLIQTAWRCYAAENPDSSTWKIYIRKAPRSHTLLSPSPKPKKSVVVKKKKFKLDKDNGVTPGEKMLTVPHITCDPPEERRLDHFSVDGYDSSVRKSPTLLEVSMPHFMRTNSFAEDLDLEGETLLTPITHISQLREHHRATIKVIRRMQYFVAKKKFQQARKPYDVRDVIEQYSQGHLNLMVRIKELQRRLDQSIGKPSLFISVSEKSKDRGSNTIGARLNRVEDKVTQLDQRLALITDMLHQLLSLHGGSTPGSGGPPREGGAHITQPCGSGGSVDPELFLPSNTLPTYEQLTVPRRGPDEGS
Assay: KCNQ1/KCNE1 channel inhibition, selectivity assay for KCNQ1 inhibitor project, CHO-K1 cells, thallium flux, FluxOR (AID 652147);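 on inhibition: 0% = buffer only wells and 100% = XE-991 inhibitor control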
Conditions: FluxOR thallium flux fluorescence, at 10 µM
Some of the results follow. Activity calls are given as the source filed them.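 How the source made its calls: active means mean percent inhibition of duplicate wells above the buffer-only control mean plus 3 SD of those controls; inactive means the rest.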
Labels: yes = active, no = inactive

> print(dat)
                                   compound  label.class
1  N#Cc1c(/N=C/N2CCCC2)oc(-c2ccccc2)c1-c1ccccc1          yes
2  COc1ccc(-c2cc(C(F)(F)F)nc(S(C)(=O)=O)n2)cc1OC          yes
3  CCOC(=O)c1c(NC(=O)C(C)Sc2c[nH]c3ccccc23)sc2c1CCC2 (stereo unspecified)          yes
4  Clc1cccc(-c2nc(NCC3CCCO3)c3ccccc3n2)c1 (stereo unspecified)          yes
5       COC(=O)c1ccc(NC(=O)Nc2ccc(C)cc2)cc1           no
6  Cc1nn(C)cc1N1C(=O)c2cccc3c(N)ccc(c23)C1=O           no

###

Molecular target: Potassium voltage-gated channel subfamily KQT member 1 (Homo sapiens)
Assay: KCNQ1 potassium channel potentiators, confirmation, FluxOR thallium flux, CHO cells, duplicates (AID 493007)
Conditions: KCNQ1 cell line, FluxOR thallium flux fluorescence, at 10 µM, % of reference activator effect, buffer zero
Calls of active or inactive are those of the source.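 How the source made its calls: active means potentiation averaged over duplicate wells exceeding buffer-only control mean by more than 3 SD; inactive means the rest.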
Labels: TRUE (active), FALSE (inactive)

> print(dat)
                                    compound  label.class
 1  CC1(N2CCCCC2)CC2(O)C(=[N+]1[O-])CCC/C2=N\O (configuration not stated)        FALSE
 2    COc1cccc2sc(Nc3nnc(-c4ccccc4Cl)o3)nc12         TRUE
 3         O=C(NC(=S)Nc1cccnc1)c1cc2ccccc2o1         TRUE
 4  CN(C)CC1CCCCC1OC(=O)/C=C/c1ccc(Cl)cc1Cl (configuration not stated)        FALSE
 5      Cc1ccccc1OC(=O)n1c(=S)oc2cc(Cl)ccc21        FALSE
 6  O=C(Nc1cccc(-c2nnc(-c3ccco3)o2)c1)c1ccccc1        FALSE
 7  CC1=NN(C(=O)c2csc(C(C)C)c2)C(O)(C(F)(F)F)C1 (configuration not stated)         TRUE
 8  CC(=C/c1ccccc1)/C=N/n1c(-c2ccco2)n[nH]c1=S        FALSE
 9  CCOc1ccc2nc(N3C(=O)/C(=C/c4ccccc4)NC3=S)sc2c1         TRUE
10  Cc1ccc(C)c(NC(=S)NNC(=O)c2csc3c2CCCC3)c1         TRUE
11            CCCOC(=S)NC(=O)c1sc2ccccc2c1Cl         TRUE
12          S=c1nc(-c2ccccc2)[nH]n1-c1ccccc1         TRUE

###

Target: Short transient receptor potential channel 4 (Mus musculus)
Assay: inhibitors of mouse TRPC4 channel, confirmation, cell-based, Fluo4, HEK293 TRPC4beta/mu-opioid (AID 2636)
Details: DAMGO, Fluo4 calcium flux, at 10 µM
Activity calls are given as the source filed them.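 How the source made its calls: active means calcium signal cut by more than 3 SD below the full-agonist control yet still positive, in both repeats and the earlier primary screen; inactive means the rest.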
Labels: 1 = active, -1 = inactive

> print(dat)
                                    compound  label.class
 1  Cc1cc(C)c(CN2CCN(Cc3ccc(C)o3)C(CCO)C2)c(-n2cccn2)c1 (stereo unspecified)           -1
 2  CC1CC(C)CN(CCCNC(=O)c2nn(C)c3c2CS(=O)(=O)c2ccccc2-3)C1 (stereo unspecified)           -1
 3        O=C(c1cccs1)N1CCN(c2ncc(Br)cn2)CC1           -1
 4  CN(C)CCCN(C(=O)c1ccc(S(=O)(=O)N(C)Cc2ccccc2)cc1)c1nc2cc3c(cc2s1)OCO3           -1
 5  CCOC(=O)C1(CCc2ccccc2)CCN(Cc2ccc(O)cc2)CC1            1
 6  COc1cc(OC)cc(C(=O)NC2CCCN(Cc3ccc(Cl)cc3)C2)c1 (stereo unspecified)           -1
 7  Cc1ccc(C(=O)NNC(=S)NC(=O)c2ccc(Cl)cc2)cc1           -1
 8  Cc1cc(-c2nn(-c3ccccc3F)cc2CNCCc2cnc[nH]2)c(C)s1           -1
 9  COc1ccc(-c2cc(C(=O)NCC(c3ccccc3)N(C)C)c3ccccc3n2)cc1OC (stereo unspecified)           -1
10  CCC1(c2ccc(F)cc2)NC(=O)N(CC(=O)c2cc(C)n(C3CC3)c2C)C1=O (stereo unspecified)           -1
11  Cc1ccc2oc(=O)c3cnn(CC(=O)NC4CCN(Cc5ccccc5)CC4)c3c2c1           -1
12  CN(CCOc1ccc(Cl)cc1)CC(O)c1ccccc1 (stereo unspecified)           -1
13  CCCCN(CC)CCNC(=O)c1cc2cc3ccc(Cl)cc3nc2o1           -1
14        C=CCn1c(CCNC(=O)c2ccco2)nc2ccccc21           -1
15  COC(=O)C1=C(C)N(Cc2ccccc2)C(=NCCc2ccccn2)N[C@H]1c1cccc(F)c1           -1
16  O=C(N/N=C/c1cc([N+](=O)[O-])cc(Br)c1O)C12CC3CCC(CC(C3)C1)C2           -1
17  Clc1ccc(COn2c(-c3ccc(Cl)cc3Cl)nc3ncccc32)cc1           -1
18      COC(=O)c1ccccc1N=Nc1c(N)[nH][nH]c1=O           -1
19  CN(C)CCCN(C(=O)c1ccc(S(=O)(=O)N2CCOCC2)cc1)c1nc2ccc(F)cc2s1           -1
20  Cn1c(O)c(/C=N/NC(=O)c2cc3ccccc3cc2O)c2ccccc21           -1
21  CCCN(CCC)CCCNc1ccc2nnc(-c3ccc(F)cc3)n2n1           -1

###

Test system: TRPC4 (mouse), co-expressed with 5HT1a in HEK293
Experiment: calcium flux potentiators in TRPC4/5HT1a cells, confirmation, counter-screen for TRPC4 potentiator project, cell-based, second counter screen, HEK293 TRPC4/5HT1a, Fluo-4 (AID 434979)
Details: Fluo-4 calcium flux, at 10 µM, serotonin added at its EC20 dose
Activity calls are given as the source filed them.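 How the source made its calls: active means signal rise over 3 SD above mean of control wells given weak agonist, in both repeats and first screen; inactive means the rest.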
Labels: TRUE for active, FALSE for inactive

> print(dat)
                                    compound  label.class
 1  CCn1c(=O)cc(OCC(=O)NCCCN2CC(C)CC(C)C2)c2ccccc21 (centres undefined)        FALSE
 2  CC1CC(C)CN(CCCNC(=O)c2nn(C)c3c2CS(=O)(=O)c2ccccc2-3)C1 (centres undefined)        FALSE
 3  Cc1ccc2[nH]c3c(=O)n(CCc4cnc[nH]4)cnc3c2c1        FALSE
 4  COc1ccc(C2Nc3ccccc3C(=O)N2Cc2ccco2)cc1COc1ccc(NC(C)=O)cc1 (centres undefined)        FALSE
 5  Cc1onc(-c2ccccc2)c1C(=O)NNC(=S)NC(=O)c1ccc(F)cc1        FALSE
 6     CN1CCC(CNC(=O)Nc2ccccc2)(c2ccccc2)CC1        FALSE
 7  OCC1(CC2CCCCO2)CCN(Cc2nc3ccccc3[nH]2)CC1 (centres undefined)        FALSE
 8  COc1ccc(/C=C/C(=O)Nc2ccccc2C(=O)NCC(c2ccc(OC)cc2)N(C)C)cc1 (centres undefined)        FALSE
 9  CC(C)(C)C(=O)NC(=S)NNC(=O)c1ccc(-c2ccccc2)cc1        FALSE
10  COc1cc(OC)cc(C(=O)NCCCN2CCN(CCCNC(=O)c3cc(OC)cc(OC)c3)CC2)c1        FALSE
11     Cc1cccc(C(=O)NNC(=S)NC(=O)c2ccccc2)c1        FALSE
12       CCCC(=O)N1CCc2cc(-c3nc(N)sc3C)ccc21        FALSE
13  CC(C)(C)c1ccc(C(=O)NC(=S)NNC(=O)COc2ccccc2)cc1        FALSE
14  CCOC(=O)C1(CCCc2ccccc2)CCN(Cc2cn(CC)nc2C)CC1        FALSE
15  COC(=O)C1=C(C)N(Cc2ccccc2)C(=NCCc2ccccn2)N[C@H]1c1cccc(F)c1        FALSE
16      Cc1ccccc1OCC(=O)NNC(=S)NC(=O)c1ccco1        FALSE
17  CCn1c(N2CCN(C(=O)Nc3ccc(F)cc3)CC2)nc2ccccc21        FALSE
18  Cc1ccc(S(=O)(=O)Nc2cccc(C(=O)NCC(c3ccco3)N3CCCC3)c2)cc1F (centres undefined)        FALSE
19  OC(CNC1CCCc2ccccc21)COc1c(Cl)cccc1Cl (centres undefined)        FALSE
20                   Cc1cc(OCCNCCO)cc(C)c1Cl         TRUE
21  CCOc1ccccc1CN1CCNC(=O)C1CC(=O)NCCc1ccccn1 (centres undefined)        FALSE
22  CN(C)C1(CNC(=O)CC(NC(=O)c2ccccc2Cl)c2ccccc2)CCCCC1 (centres undefined)        FALSE
23                 COc1cccc(CNCc2ccccn2)c1OC        FALSE
24  CN(C)CCN(C(=O)C1CCCCC1)c1nc2cc3c(cc2s1)OCO3        FALSE
25  CCCCCSc1nnc2c(n1)OC(c1cccn1C)N(C(C)=O)c1ccccc1-2 (centres undefined)        FALSE
26  CCn1cc(CN2CCCC(C(=O)Nc3ccc(-c4nc5ccccc5[nH]4)cc3)C2)c(C)n1 (centres undefined)        FALSE
27  O=C(C1CCCN(Cc2ccncc2)C1)N1CCc2ccccc2C1 (centres undefined)        FALSE
28  Cc1cc(-c2nn(-c3ccccc3F)cc2CNCCc2cnc[nH]2)c(C)s1        FALSE
29  Cc1ccc2oc(=O)c3cnn(CC(=O)NC4CCN(Cc5ccccc5)CC4)c3c2c1        FALSE
30  CN1CCCC(OC(=O)c2cc(Cl)cc(Cl)c2)C1 (centres undefined)        FALSE
31  OC1(c2ccccc2)CN(c2ccccc2)C2=[N+]1CCS2 (centres undefined)        FALSE
32  O=C(C1CCCN(Cc2ccccc2F)C1)N1CCc2ccccc2C1 (centres undefined)        FALSE
33   CCCOc1ccc(C(=O)NNC(=S)NC(=O)c2ccco2)cc1        FALSE
34  CCCCC(c1nnnn1CC1CCCO1)N1CCN(c2nc3ccccc3s2)CC1 (centres undefined)        FALSE
35  CCCN(CCC)CCNC(=S)Nc1ccc2nc3n(c(=O)c2c1)CCCCC3        FALSE
36  CCCCN(C)CCCNC(=O)CN1N=C(c2ccc(Cl)cc2)CCC1=O         TRUE
37       C=CCn1c(CCNC(=O)C(C)(C)C)nc2ccccc21        FALSE
38  Cc1ccc(/C=N\NC(=O)C2COc3cc4ccccc4cc3O2)o1 (centres undefined)        FALSE
39  O=C(C1CCCN(Cc2ccccc2)C1)N1CCc2ccccc2C1 (centres undefined)        FALSE
40            CCN(CC)CCSc1nc2ccc(OC)cc2[nH]1        FALSE
41  CC(C)(C)c1ccccc1NC(=O)NC1CCN(Cc2c(F)cccc2Cl)CC1        FALSE
42  CCCN(CCC)CCCNC(=O)C1CCN(S(=O)(=O)c2cccc3nsnc23)CC1        FALSE
43  Cc1ccc(NS(=O)(=O)c2ccc(C(=O)N3CC(C)CC(C)C3)cc2)cc1 (centres undefined)        FALSE
44  CCCOc1ccc(C(=O)NNC(=S)NC(=O)c2ccccc2)cc1        FALSE
